# Tested on: human primary CD3+ T-cells
# methodNotes: Recovery of 2-chloroadenosine (CADO) mediated inhibition of IL-2 production
# Format: cell-based
# testSettings: T-cell, two donors, 10 μM CADO, 48 hours
outcomeMeasure: pEC50
Note: pEC50 values are expressed as the negative base-10 logarithm of concentration in M.

Observed pEC50 on human primary CD3+ T-cells, entry Cc1cccc(Cn2cc3c(N)nc(-c4ccsn4)nc3n2)c1 [Example 1] , equals 6.25

====

Here's a batch of compounds along with measured IC50 for human adenosine receptor sub-type A2a (wild type) (Homo sapiens (Human), UniProt P29274).
Report the figure along with its unit, number first.

Example results:
[[record]]
compound = "Cc1ccc(Cn2cc3c(N)nc(-c4ccsn4)nc3n2)cc1C [Example 21]"
outcomemeasure = "IC50"
val = "5 nM"

[[record]]
compound = "COc1ccccc1Cn1cc2c(N)nc(-c3ccc(C)o3)nc2n1 [Comparative Example 1, reference compound]"
outcomemeasure = "IC50"
val = "2.2 nM"

[[record]]
compound = "COc1ccccc1Cn1cc2c(N)nc(-c3ncco3)nc2n1 [Example 39]"
outcomemeasure = "IC50"
val = "4.3 nM"

[[record]]
compound = "Cc1ccccc1Cn1cc2c(N)nc(-c3cnccn3)nc2n1 [Example 31]"
outcomemeasure = "IC50"
val = "5.7 nM"


Now look at this one.
For Nc1nc(-c2ccsn2)nc2nn(Cc3nccs3)cc12 [Example 34] the compound record lists IC50 as 67 nM

====

# methodNotes: Solubility
# Type: physicochemical
# testSettings: water (or specific buffer), thermodynamic from solid, overnight stirring at ambient temperature, LC-UV
# solubility per record follows

[[record]]
compound = "COc1ccccc1Cn1cc2c(N)nc(-c3ccc(C)o3)nc2n1 [Comparative Example 1, reference compound]"
val = "1 µg/mL"

[[record]]
compound = "Nc1nc(-c2ccsn2)nc2nn(Cc3cccc(Cl)c3)cc12"
val = "> 10 µg/mL"

[[record]]
compound = "Cc1ccc(Cn2cc3c(N)nc(-c4ccsn4)nc3n2)cc1F"
val = "> 5 µg/mL"


GET /value?item= "COc1cccc(Cn2cc3c(N)nc(-c4nccs4)nc3n2)c1" &field=solubility returns > 10 µg/mL

The recorded solubility for "Cc1cccc(Cn2cc3c(N)nc(-c4cnccn4)nc3n2)c1" is > 50 µg/mL

====

System: human adenosine receptor sub-type A2a (wild type) (Homo sapiens (Human), UniProt P29274) | Read-out: IC50
Sequence (P29274 whole entry): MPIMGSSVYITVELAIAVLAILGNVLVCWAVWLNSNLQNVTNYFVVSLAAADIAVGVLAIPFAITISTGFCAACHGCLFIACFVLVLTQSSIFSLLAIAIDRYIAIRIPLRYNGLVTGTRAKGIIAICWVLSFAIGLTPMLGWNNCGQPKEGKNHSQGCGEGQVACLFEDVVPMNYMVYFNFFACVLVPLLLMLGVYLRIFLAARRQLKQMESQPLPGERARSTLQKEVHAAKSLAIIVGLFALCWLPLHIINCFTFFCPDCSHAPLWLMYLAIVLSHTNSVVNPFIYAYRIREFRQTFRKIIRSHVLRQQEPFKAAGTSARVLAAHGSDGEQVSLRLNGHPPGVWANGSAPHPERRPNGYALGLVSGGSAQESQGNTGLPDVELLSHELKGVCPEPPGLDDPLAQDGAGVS
# unit: nM | format: bare number

Field: example entries. Status: answers known.
[[record]]
smilesstr = "COc1cccc(Cn2cc3c(N)nc(-c4ccsn4)nc3n2)c1"
tgt = "human adenosine receptor sub-type A2a (wild type) (Homo sapiens (Human), UniProt P29274)"
val = 5.1

[[record]]
smilesstr = "COc1ccccc1Cn1cc2c(N)nc(-c3ccsn3)nc2n1"
tgt = "human adenosine receptor sub-type A2a (wild type) (Homo sapiens (Human), UniProt P29274)"
val = 4.3

[[record]]
smilesstr = "COc1ccccc1Cn1cc2c(N)nc(-c3cnccn3)nc2n1"
tgt = "human adenosine receptor sub-type A2a (wild type) (Homo sapiens (Human), UniProt P29274)"
val = 2.7

[[record]]
smilesstr = "Nc1nc(-c2cnccn2)nc2nn(Cc3cccc(F)c3)cc12"
tgt = "human adenosine receptor sub-type A2a (wild type) (Homo sapiens (Human), UniProt P29274)"
val = 8

[[record]]
smilesstr = "Cc1ccccc1Cn1cc2c(N)nc(-c3ccsn3)nc2n1"
tgt = "human adenosine receptor sub-type A2a (wild type) (Homo sapiens (Human), UniProt P29274)"
val = 10

[[record]]
smilesstr = "COc1cccc(Cn2cc3c(N)nc(-c4snnc4C)nc3n2)c1"
tgt = "human adenosine receptor sub-type A2a (wild type) (Homo sapiens (Human), UniProt P29274)"
val = 24

[[record]]
smilesstr = "Nc1nc(-c2ccsn2)nc2nn(Cc3cc(Cl)ccc3Cl)cc12"
tgt = "human adenosine receptor sub-type A2a (wild type) (Homo sapiens (Human), UniProt P29274)"
val = 13

[[record]]
smilesstr = "COc1cccc(Cn2cc3c(N)nc(-c4cscn4)nc3n2)c1"
tgt = "human adenosine receptor sub-type A2a (wild type) (Homo sapiens (Human), UniProt P29274)"
val = 41

[[record]]
smilesstr = "Nc1nc(-c2ccsn2)nc2nn(Cc3ccccc3O)cc12"
tgt = "human adenosine receptor sub-type A2a (wild type) (Homo sapiens (Human), UniProt P29274)"
val = 15

[[record]]
smilesstr = "Cc1ccc(Cn2cc3c(N)nc(-c4nccs4)nc3n2)cc1"
tgt = "human adenosine receptor sub-type A2a (wild type) (Homo sapiens (Human), UniProt P29274)"
val = 14


Please fill in: IC50 reported for "COc1cccc(Cn2cc3c(N)nc(-c4cc(C)no4)nc3n2)c1" = 162

IC50 reported for this compound "Cc1ccc(Cn2cc3c(N)nc(-c4ccsn4)nc3n2)cn1" : 29

compound "Cc1cccc(Cn2cc3c(N)nc(-c4ccsn4)nc3n2)c1" , IC50 observed: 3.5

Data point: "Nc1nc(-c2ccsn2)nc2nn(Cc3cccc(CO)c3)cc12" ; IC50 = 37

For this compound ( "COc1cccc(Cn2cc3c(N)nc(-c4cnccn4)nc3n2)c1" ), measured IC50 is 6.7

compound "Nc1nc(-c2cnccn2)nc2nn(Cc3cccc(O)c3)cc12" , IC50 observed: 41
